Target or test system: UniProt:Q9NYK1
Experiment notes: TLR7 inhibition reporter assay (HEK-Blue SEAP reporter, gardiquimod stimulation)
Study conditions: HEK-Blue cells overexpressing human TLR7, SEAP reporter, gardiquimod 7.5 μM, 22 hour incubation
Property measured: IC50 (µM)

I. CCCN1CCC(c2ccc3[nH]c(-c4cc(-c5cnn(C)c5)c(=O)n(C)c4)c(C(C)C)c3c2)CC1 [Example 334]
II. Cc1cc(-c2[nH]c3ccc(C4CCN(CCC(C)C)CC4)cc3c2C(C)C)cn(C)c1=O [Example 86]
Lookup: Pick one: I or II . Which one has the lower reported IC50? When you have decided, please share the label of that item.
Found: II

a. CC(C)c1c(-c2ccc(=O)n(C)n2)[nH]c2ccc(C3CCNCC3)cc12 [Example 5]
b. CCn1cc(-c2[nH]c3ccc(C4CCN(C(=O)CN(C)C)CC4)cc3c2C(C)C)c(C)c(C)c1=O [Example 281]
c. Cc1cc(-c2[nH]c3ccc(C4CCN(C(C)C)CC4)cc3c2C(C)C)nn(C)c1=O [Example 192]
d. COc1c(C)c(-c2[nH]c3ccc(C4CCN(CC(=O)N(C)C)CC4)cc3c2C(C)C)cn(C)c1=O [Example 141]
Lookup: Rank items: key IC50, increasing. Output spec: a listing of the labels in the requested order.
Found: c, d, b, a

====

Target or test system: human TLR7 (Homo sapiens, UniProt Q9NYK1)
Experiment notes: TLR7 inhibition reporter assay (HEK-Blue SEAP reporter, gardiquimod stimulation)
Study conditions: HEK-Blue cells overexpressing human TLR7, SEAP reporter, gardiquimod 7.5 μM, 22 hour incubation
pIC50: −log10 of the molar value.
Property measured: pIC50

The examples below pair each entry with its known result.
{"columns": ["Molecular string", "Property measured", "Assay result"],
 "data": [
  ["Cc1c(-c2[nH]c3ccc(C4CCN(CC5COC5)CC4)cc3c2C(C)C)cn(C)c(=O)c1Cl", "pIC50", 8.49],
  ["Cc1cc(-c2[nH]c3ccc(C4CCN(CCC#N)CC4)cc3c2C(C)C)cn(C)c1=O", "pIC50", 8.36],
  ["Cc1c(-c2[nH]c3ccc(C4CCN(C(=O)CN(C)C)CC4)cc3c2C(C)C)cn(C)c(=O)c1C", "pIC50", 8.21]
]}

a. CCn1cc(-c2[nH]c3ccc(C4CCN(C5CCOCC5)CC4)cc3c2C(C)C)c(C)c(C)c1=O
b. Cc1nc(-c2[nH]c3ccc(C4CCN(C5CCOCC5)CC4)cc3c2C(C)C)cn(C)c1=O
c. Cc1cc(-c2[nH]c3ccc(C4CCN(C)CC4)cc3c2C(C)C)cn(CC(F)F)c1=O
d. Cc1c(-c2[nH]c3ccc(C4CCN(CC(C)(C)O)CC4)cc3c2C(C)C)cn(C)c(=O)c1C
Lookup: Highest pIC50 first, then in falling order down to the smallest. Kindly provide the labels arranged according to the requested ordering.
Found: d, c, a, b
(d: 8.17, c: 7.94, a: 7.51, b: 7.21)

====

Target or test system: human TLR7 (Homo sapiens, UniProt Q9NYK1)
Sequence (Q9NYK1 27-1049): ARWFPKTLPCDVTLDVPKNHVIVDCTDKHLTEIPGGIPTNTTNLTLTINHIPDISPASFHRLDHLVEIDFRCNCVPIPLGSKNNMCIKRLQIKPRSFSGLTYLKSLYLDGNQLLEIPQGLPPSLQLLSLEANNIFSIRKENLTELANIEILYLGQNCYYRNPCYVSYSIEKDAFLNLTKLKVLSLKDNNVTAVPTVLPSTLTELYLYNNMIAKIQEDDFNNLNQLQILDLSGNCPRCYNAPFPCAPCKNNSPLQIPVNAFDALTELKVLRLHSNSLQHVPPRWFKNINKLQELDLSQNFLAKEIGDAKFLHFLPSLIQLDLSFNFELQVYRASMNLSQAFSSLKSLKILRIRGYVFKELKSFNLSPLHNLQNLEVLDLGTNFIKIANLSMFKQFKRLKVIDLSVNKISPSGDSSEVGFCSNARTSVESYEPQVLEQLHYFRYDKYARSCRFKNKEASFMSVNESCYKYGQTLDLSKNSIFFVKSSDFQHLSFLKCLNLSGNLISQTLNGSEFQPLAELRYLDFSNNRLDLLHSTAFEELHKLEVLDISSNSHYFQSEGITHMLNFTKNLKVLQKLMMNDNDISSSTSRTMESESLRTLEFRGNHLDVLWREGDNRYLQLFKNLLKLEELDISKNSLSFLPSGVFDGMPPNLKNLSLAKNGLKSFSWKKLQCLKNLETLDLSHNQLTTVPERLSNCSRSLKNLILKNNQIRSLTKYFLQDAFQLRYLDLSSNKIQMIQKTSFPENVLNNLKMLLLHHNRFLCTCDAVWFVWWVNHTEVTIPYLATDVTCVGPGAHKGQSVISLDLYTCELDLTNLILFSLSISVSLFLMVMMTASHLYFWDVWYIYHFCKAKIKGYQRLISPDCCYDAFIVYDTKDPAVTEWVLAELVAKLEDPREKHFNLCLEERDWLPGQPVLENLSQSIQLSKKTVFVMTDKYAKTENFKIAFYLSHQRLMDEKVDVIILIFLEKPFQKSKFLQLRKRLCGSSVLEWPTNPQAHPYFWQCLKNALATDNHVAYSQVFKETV
Experiment notes: TLR7 inhibition reporter assay (HEK-Blue SEAP reporter, gardiquimod stimulation)
Study conditions: HEK-Blue cells overexpressing human TLR7, SEAP reporter, gardiquimod 7.5 μM, 22 hour incubation
pIC50: −log10 of the molar value.
Property measured: pIC50

Below, each entry is followed by its recorded pIC50 result.
{"columns": ["Molecular string", "pIC50"],
 "data": [
  ["CC(=O)Nc1cccc(-c2cc(-c3[nH]c4ccc(C5CCNCC5)cc4c3C(C)C)cn(C)c2=O)c1", 7.04],
  ["Cc1nc(-c2[nH]c3ccc(C4CCN(C(=O)CN(C)C)CC4)cc3c2C(C)C)cn(C)c1=O", 6.94]
]}

a. Cc1cc(-c2[nH]c3ccc(C4CCNCC4)cc3c2C(C)C)cn(CC(C)(C)O)c1=O
b. Cc1cc(-c2[nH]c3ccc(C4CCN(C5COC5)CC4)cc3c2C(C)C)c(C)n(C)c1=O
Lookup: When a and b are compared, which has the higher number for pIC50? Answer with the label corresponding to your selection.
Found: b
(b: 7.46, a: 6.96)

FYI, the data here is from patent US11447466B2.
